assayText: Solubility (Test F)
Format: physicochemical
recordedConditions: arithmetic mean if run multiple times
readoutLabel: solubility (µM)

I. CC(C)Oc1cc(F)c(O[C@H]2CC[C@@](CO)(C(=O)O)CC2)cc1C(=O)N[C@@H]1[C@H]2CC[C@H](C2)[C@@H]1C(=O)NCC1(C)CCC1
II. COc1cc(F)c(O[C@H]2CC[C@@](C)(C(=O)O)CC2)cc1C(=O)N[C@@H]1CC[C@@H]1C(=O)Nc1ccc(F)c(C(F)(F)F)c1
Q: // pick min by solubility: I , II Please indicate the selected item by its label.
A: II

* * *

targetDesc: human RXFP1 (Homo sapiens)
Sequence (Q9HBX9 1-757): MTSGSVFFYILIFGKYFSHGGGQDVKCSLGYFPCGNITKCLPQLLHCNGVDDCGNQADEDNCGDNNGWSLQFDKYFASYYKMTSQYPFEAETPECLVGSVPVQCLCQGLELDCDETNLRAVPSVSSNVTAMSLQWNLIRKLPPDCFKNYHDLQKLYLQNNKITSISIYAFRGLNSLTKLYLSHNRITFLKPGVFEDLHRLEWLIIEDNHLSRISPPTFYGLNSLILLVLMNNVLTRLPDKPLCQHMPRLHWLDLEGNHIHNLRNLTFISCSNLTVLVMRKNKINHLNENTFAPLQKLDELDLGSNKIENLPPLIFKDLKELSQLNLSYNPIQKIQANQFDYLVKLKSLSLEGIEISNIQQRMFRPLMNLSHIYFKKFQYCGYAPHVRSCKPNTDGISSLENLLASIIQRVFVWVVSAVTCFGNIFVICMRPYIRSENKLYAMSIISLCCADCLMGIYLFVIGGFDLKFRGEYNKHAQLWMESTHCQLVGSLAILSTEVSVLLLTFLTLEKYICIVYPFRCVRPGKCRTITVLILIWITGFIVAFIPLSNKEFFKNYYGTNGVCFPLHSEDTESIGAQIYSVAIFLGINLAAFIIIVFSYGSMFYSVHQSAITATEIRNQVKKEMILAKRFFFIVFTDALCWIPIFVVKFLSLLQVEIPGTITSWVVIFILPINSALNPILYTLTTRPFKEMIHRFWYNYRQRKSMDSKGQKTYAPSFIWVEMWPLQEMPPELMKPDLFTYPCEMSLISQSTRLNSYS
assayText: RXFP1 Hu cAMP (Test A)
Format: cell-based
Design: expressed in transfected cells; host or cells: Jump-In T-REx CHO-K1 cells (ThermoFisher), induced with 10 ng/ml doxycycline for 24 h
recordedConditions: RXFP1 Hu cAMP
readoutLabel: Test A Sinf (%)

# compound, Test A Sinf / %
measured = [
    ("COc1cc(C#N)c(O[C@H]2CC[C@@](C)(C(=O)O)CC2)cc1C(=O)N[C@@H]1[C@H]2CC[C@H](C2)[C@@H]1C(=O)NCC1(CF)CC1", 123),
    ("COc1cc(F)c(O[C@H]2CC[C@@](C)(C(N)=O)CC2)cc1C(=O)N[C@@H]1[C@H]2CC[C@H](C2)[C@@H]1C(=O)NCC1(F)CCOCC1", 111),
    ("COc1cc(C#N)c(O[C@H]2CC[C@@](C)(C(=O)O)CC2)cc1C(=O)N[C@@H]1[C@H]2CC[C@H](C2)[C@@H]1C(=O)NCC1(CO)CCCC1", 103),
    ("COc1cc(C#N)c(O[C@H]2C[C@@]3(C2)C[C@H](C(=O)O)C3)cc1C(=O)N[C@@H]1[C@H]2CC[C@H](C2)[C@@H]1C(=O)NCC1(C)CCC1 (single isomer, unassigned)", 89),
    ("COc1cc(F)c(O[C@H]2CC[C@@H](C(=O)O)CC2)cc1C(=O)N[C@@H]1[C@H]2CC[C@H](C2)[C@@H]1C(=O)Nc1ccc(Br)c(C(F)(F)F)c1", 109),
]

* * *

assayText: Human Plasma Protein Binding (Test B)
Assay type: in vitro ADME
recordedConditions: fraction unbound (fu)
readoutLabel: Test B Human Plasma Protein Binding (% free)

These recorded examples may help you get a feel for the data.
# compound, numericReadout
rows = [
    ("COc1cc(C#N)c(O[C@H]2CC[C@@](C)(C(=O)O)CC2)cc1C(=O)N[C@@H]1[C@H]2CC[C@H](C2)[C@@H]1C(=O)N[C@]12CC3CC(C[C@@](O)(C3)C1)C2", 28),
    ("COc1cc(F)c(O[C@H]2CC[C@@H](C(=O)O)CC2)cc1C(=O)N[C@@H]1[C@H]2CC[C@H](C2)[C@@H]1C(=O)Nc1ccc(C(F)(F)F)cn1", 3.1),
    ("CCC(C)(C)CNC(=O)[C@H]1[C@@H]2CC[C@@H](C2)[C@H]1NC(=O)c1cc(O[C@H]2CC[C@@](C)(C(=O)O)CC2)c(F)cc1OC", 3.8),
]

I. COc1cc(C)c(O[C@H]2CC[C@@](C)(C(=O)O)CC2)cc1C(=O)N[C@@H]1[C@H]2CC[C@H](C2)[C@@H]1C(=O)NCC1(C)CCC1
II. COc1cc(F)c(O[C@H]2CC[C@@H](C(=O)O)CC2)cc1C(=O)N[C@@H]1[C@H]2CC[C@H](C2)[C@@H]1C(=O)Nc1ccccc1
Q: For the two items I and II , which reports the higher Test B Human Plasma Protein Binding (% free) value? # respond with the chosen item's label
A: I

P. COc1cc(F)c(OC2CCC(C)(C(=O)O)CC2)cc1C(=O)NC1C2CCC(CC2)C1C(=O)NCC1(C)CCC1 (single isomer, unassigned)
Q. COc1cc(F)c(-c2cccc(CC(=O)O)c2)cc1C(=O)N[C@H]1[C@@H](C(=O)Nc2cccc(S(=O)(=O)C(F)(F)F)c2)[C@@H]2C=C[C@H]1C2 (racemic)
Q: Select one. Lower Test B Human Plasma Protein Binding (% free): P or Q # respond with the chosen item's label
A: Q

1. COc1cc(F)c(O[C@H]2CC[C@@](C)(C(=O)O)CC2)cc1C(=O)N[C@@H]1[C@H]2CC[C@H](C2)[C@@H]1C(=O)NC(C(C)C)C(C)C
2. COc1cc(F)c(O[C@H]2CC[C@@H](C(=O)O)CC2)cc1C(=O)N[C@@H]1[C@H]2CC[C@H](C2)[C@@H]1C(=O)Nc1cccc(C(F)F)c1
Q: Test B Human Plasma Protein Binding (% free) comparison. Which is larger, 1 or 2 ? Lab note: record the label of whichever item you select.
A: 1

I. COc1cc(F)c(O[C@H]2CC[C@@H](C(=O)O)CC2)cc1C(=O)N[C@@H]1[C@H]2CC[C@H](C2)[C@@H]1C(=O)Nc1cccc(CF)c1
II. COc1cc(C#N)c(O[C@H]2CC[C@@](C)(C(=O)O)CC2)cc1C(=O)N[C@@H]1[C@H]2CC[C@H](C2)[C@@H]1C(=O)NC12CC(F)(C1)C2
Q: Of I and II , which shows the smaller Test B Human Plasma Protein Binding (% free) value? Write down the label of the entry you select.
A: I

* * *

assayText: Human Liver Microsomal Stability (Test C)
Format: in vitro ADME
recordedConditions: human, liver microsomes
readoutLabel: microsomal CLint (µL/min/mg)

# compound, microsomal CLint, µL/min/mg
data = [
    ("COc1cc(F)c(-c2ccc(C(=O)O)cc2)cc1C(=O)N[C@@H]1[C@H]2CC[C@H](C2)[C@@H]1C(=O)Nc1cccc(S(=O)(=O)C(F)(F)F)c1", 16),
]

P. COc1cc(F)c(-c2cccc(CC(=O)O)c2)cc1C(=O)N[C@H]1[C@@H](C(=O)Nc2cccc(S(=O)(=O)C(F)(F)F)c2)[C@@H]2C=C[C@H]1C2 (racemic)
Q. CCC(CC)CNC(=O)[C@H]1[C@@H]2CC[C@@H](C2)[C@H]1NC(=O)c1cc(O[C@H]2CC[C@@H](C(=O)O)CC2)c(F)cc1OC
R. COc1cc(C#N)c(O[C@H]2CC[C@@](C)(C(=O)O)CC2)cc1C(=O)NC1C2C=CC(CC2)C1C(=O)NCC1(C)CCC1 (single isomer, unassigned)
S. COc1cc(F)c(-c2ccc(CCC(N)(CO)CO)c(F)c2)cc1C(=O)N[C@@H]1[C@H]2CC[C@H](C2)[C@@H]1C(=O)Nc1cccc(S(=O)(=O)C(F)(F)F)c1
Q: Sort ascending by microsomal CLint. Rank them, then answer with their labels in that order.
A: P, R, Q, S

* * *

assayText: Human Plasma Protein Binding (Test B)
Type: in vitro ADME
recordedConditions: fraction unbound (fu)
readoutLabel: Test B Human Plasma Protein Binding (% free)

# molecule, valueUnits, numericReadout
rows = [
    ("COc1cc(F)c(O[C@H]2CC[C@@](C)(C(=O)O)CC2)cc1C(=O)N[C@@H]1[C@H]2CC[C@H](C2)[C@@H]1C(=O)N[C@H](C)C(C)C [Example 46]", "% free", 7.6),
    ("COc1cc(F)c(-c2ccc(C[C@@H](C(=O)O)N(C)C)cc2)cc1C(=O)N[C@@H]1[C@H]2CC[C@H](C2)[C@@H]1C(=O)Nc1cccc(S(=O)(=O)C(F)(F)F)c1 (racemic) [Example 289]", "% free", 1),
    ("CC(C)Oc1cc(F)c(O[C@H]2CC[C@@](CO)(C(=O)O)CC2)cc1C(=O)N[C@@H]1[C@H]2CC[C@H](C2)[C@@H]1C(=O)NCC1(C)CCC1 [Example 486]", "% free", 6.8),
    ("COc1cc(F)c(O[C@H]2CC[C@@](C)(C(=O)O)CC2)cc1C(=O)N[C@@H]1[C@H]2CC[C@H](C2)[C@@H]1C(=O)N[C@H](C)C(C)(C)C [Example 36]", "% free", 6.9),
    ("COc1cc(C#N)c(O[C@H]2CC[C@@](C)(C(=O)O)CC2)cc1C(=O)N[C@@H]1[C@H]2CC[C@H](C2)[C@@H]1C(=O)NCC1CCCCCC1 [Example 82]", "% free", 2.5),
    ("COc1c(C#N)cc(O[C@H]2CC[C@@](C)(C(=O)O)CC2)cc1C(=O)N[C@@H]1[C@H]2CC[C@H](C2)[C@@H]1C(=O)NCC1(C)CCC1 [Example 404]", "% free", 2.3),
    ("COc1cc(F)c(O[C@H]2CC[C@@H](C(=O)O)CC2)cc1C(=O)NC1=C(C(=O)Nc2ccc(F)c(C(F)(F)F)c2)CCC1 [Example 214]", "% free", 0.090),
    ("COc1cc(C#N)c(O[C@H]2CC[C@@](C)(C(=O)O)CC2)cc1C(=O)N[C@@H]1[C@H]2CC[C@H](C2)[C@@H]1C(=O)NC1(C)CC1 [Example 100]", "% free", 30),
    ("CCC(CC)[C@@H](C)NC(=O)[C@H]1[C@@H]2CC[C@@H](C2)[C@H]1NC(=O)c1cc(O[C@H]2CC[C@@](C)(C(=O)O)CC2)c(F)cc1OC (single isomer, unassigned) [Example 145]", "% free", 0.81),
    ("COc1cc(F)c(O[C@H]2CC[C@@H](C(=O)O)CC2)cc1C(=O)N[C@@H]1[C@H]2CC[C@H](C2)[C@@H]1C(=O)Nc1ccc(F)c(S(F)(F)(F)(F)F)c1 [Example 433]", "% free", 0.38),
]

1. COc1cc(C#N)c(O[C@H]2CC[C@@](C)(C(=O)O)CC2)cc1C(=O)N[C@@H]1[C@H]2CC[C@H](C2)[C@@H]1C(=O)NCC1(C)CC1 [Example 98]
2. COc1cc(F)c(O[C@H]2CC[C@@](C)(C(=O)O)CC2)cc1C(=O)N[C@@H]1[C@H]2CC[C@H](C2)[C@@H]1C(=O)NCC1(C)CCC1 [Example 1]
3. COc1cc(F)c(O[C@H]2CC[C@@H](C(=O)O)CC2)cc1C(=O)N[C@@H]1[C@H]2CC[C@H](C2)[C@@H]1C(=O)Nc1cccc(C(C)(C)C)c1 [Example 189]
4. COc1cc(C#N)c(O[C@H]2CC[C@@](C)(C(=O)O)CC2)cc1C(=O)N[C@@H]1[C@H]2CC[C@H](C2)[C@@H]1C(=O)NCC1CC(C)(C)C1 [Example 87]
5. COc1cc(F)c(O[C@H]2CC[C@@H](C(=O)O)CC2)cc1C(=O)N[C@@H]1[C@H]2CC[C@H](C2)[C@@H]1C(=O)Nc1cc(C(F)(F)F)cc(C(F)(F)F)c1 [Example 22]
Q: Order these by Test B Human Plasma Protein Binding (% free), descending, and give the full ranking. Would you mind listing the labels in the order requested?
A: 1, 4, 2, 3, 5
(1: 13 % free, 4: 6.7 % free, 2: 4.3 % free, 3: 1.5 % free, 5: 0.23 % free)

a. COc1cc(F)c(O[C@H]2CC[C@@H](C(=O)O)CC2)cc1C(=O)N[C@@H]1[C@H]2CC[C@H](C2)[C@@H]1C(=O)NC12CC(C1)C2 [Example 178]
b. COc1cc(C#N)c(O[C@H]2CC[C@@](C)(C(=O)O)CC2)cc1C(=O)N[C@@H]1[C@H]2CC[C@H](C2)[C@@H]1C(=O)NCC(C)(C)O [Example 76]
Q: Param pair: a , b . Output: the one whose Test B Human Plasma Protein Binding (% free) is numerically greater. Record your answer as the label of the chosen record.
A: b

I. COc1cc(F)c(O[C@H]2CC[C@@H](C(=O)O)CC2)cc1C(=O)N[C@@H]1[C@H]2CC[C@H](C2)[C@@H]1C(=O)NC1CCC1 [Example 177]
II. COc1cc(F)c(O[C@H]2CC[C@@H](C(=O)O)CC2)cc1C(=O)N[C@@H]1[C@H]2CC[C@H](C2)[C@@H]1C(=O)NC(C)C [Example 8]
Q: Could you determine which record has the numerically smaller Test B Human Plasma Protein Binding (% free)? Candidates: I and II Answer format: the label of the selected item.
A: I
(I: 15 % free, II: 23 % free)

Recorded values, source patent US11667602B2.
